biological target: EGFR (form in the assay not stated) (human, UniProt P00533 25-645, limits assumed); test: ELISA, NEM conjugate 500 nM
Give binding ratio vs parent P54AR4-83v2 for every item shown.
Just the number plus its unit, please.

Lookup: What value of measured binding ratio vs parent P54AR4-83v2 is listed for P54AR4-83v2 S52C, NEM conjugate (designed binder, NEM on Cys 52, His-tagged) LPAPKNLVVSEVTEDSARLSWDDPWAFYESFLIQYQESEKVGEAIVLTVPGCERSYDLTGLKPGTEYTVSIYGVHNVYKDTNMRGLPLSAIFTT ?
Found: 0.93 ratio

Lookup: Quick one: binding ratio vs parent P54AR4-83v2 of P54AR4-83v2 P2C, NEM conjugate (designed binder, NEM on Cys 2, His-tagged) LCAPKNLVVSEVTEDSARLSWDDPWAFYESFLIQYQESEKVGEAIVLTVPGSERSYDLTGLKPGTEYTVSIYGVHNVYKDTNMRGLPLSAIFTT ?
Found: 0.01 ratio

Lookup: # get_value(readout='binding ratio vs parent P54AR4-83v2', item= P54AR4-83v2 A3C, NEM conjugate (designed binder, NEM on Cys 3, His-tagged) LPCPKNLVVSEVTEDSARLSWDDPWAFYESFLIQYQESEKVGEAIVLTVPGSERSYDLTGLKPGTEYTVSIYGVHNVYKDTNMRGLPLSAIFTT )
Found: 0.82 ratio

Lookup: Entry P54AR4-83v2 V9C, NEM conjugate (designed binder, NEM on Cys 9, His-tagged) LPAPKNLVCSEVTEDSARLSWDDPWAFYESFLIQYQESEKVGEAIVLTVPGSERSYDLTGLKPGTEYTVSIYGVHNVYKDTNMRGLPLSAIFTT : reported binding ratio vs parent P54AR4-83v2 = ?
Found: 0.93 ratio

// data source = patent US20170362301A1
